- measurement target: T1, FAM91A1^N (N terminus of FAM91A1, residues 1-328), wild type (UniProt Q658Y4 1-328)
- T1 sequence (looked up): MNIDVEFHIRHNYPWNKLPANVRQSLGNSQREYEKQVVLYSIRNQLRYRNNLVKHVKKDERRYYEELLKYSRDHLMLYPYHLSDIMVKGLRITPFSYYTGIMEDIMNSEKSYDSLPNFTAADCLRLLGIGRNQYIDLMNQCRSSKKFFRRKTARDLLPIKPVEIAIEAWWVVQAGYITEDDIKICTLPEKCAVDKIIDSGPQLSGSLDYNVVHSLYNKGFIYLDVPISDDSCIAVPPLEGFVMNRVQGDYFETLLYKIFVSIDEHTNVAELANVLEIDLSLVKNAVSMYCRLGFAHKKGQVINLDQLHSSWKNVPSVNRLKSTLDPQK
- assay summary: pull-down
experimental endpoint: binding result

binder | observed result
TPVDQHVSSSDRVGKPYRGVKPVFSIGDEEEYDTDEIDSSSMSDD (domain or fragment, human, UniProt Q9NUY8-2 514-558, looked up) [GST-TBC1D23^514-558 R518Q] | binds
TPVDRHVSSSDRVGKPYCGVKPVFSIGDEEEYDTDEIDSSSMSDD (domain or fragment, human, UniProt Q9NUY8-2 514-558, looked up) [GST-TBC1D23^514-558 R531C] | binds
TPVDRHVSSSDRVGKPYHGVKPVFSIGDEEEYDTDEIDSSSMSDD (domain or fragment, human, UniProt Q9NUY8-2 514-558, looked up) [GST-TBC1D23^514-558 R531H] | binds

Every entry's value here was drawn from paper PMC10636324.
